B1: MYOZ1 (parent)
chain: FSDSSMDHFQKFLPTVGGQLGTAG

# Variants of: B1
# Test Method Notes: protein stability index of a GFP-peptide fusion (GPS, HEK-293T) (PSI 1-6); higher = more stable;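 also: lentivirally expressed fusions sorted by FACS into six bins by GFP to DsRed ratio, PSI derived from sequencing read proportions per bin multiplied by bin number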
# Protocol Conditions: c terminus: a fixed tail appended
Short version: protein stability index at least 2 is label 1, less is label 0.

Below are worked cases with known answers.
Q19F | label 0
D7V | label 1
M6N | label 1

input: Evaluate "F9L" : protein stability index at minimum 2?
output: label 1

input: Can "S5L" be said to have protein stability index at or above 2?
output: label 1

input: Has "T15P" a recorded protein stability index greater than or equal to 2?
output: label 1

input: Hello, I need to know if "Q19H" has measured protein stability index not below 2. Thanks!
output: label 0

input: Quick check: does "F9W" have protein stability index greater than or equal to 2?
output: label 0
